Ref: ChEMBL document CHEMBL2439955

experiment: Metabolic stability of the compound in mouse liver microsomes after 30 mins
Type: ADME, Microsome
assay.conditions: read-out: Stability
assay.metric: remaining at 0.5 h (%)

1) CC(C)(C)CNC(=O)Cc1ccc(Nc2nc(-c3ccccc3)ncc2C(N)=O)cc1 52

###

experiment: Terminal half life in mouse at 10 mg/kg, ip
Assay type: ADME, organism-based
Set-up: dose 10 mg/kg, route intraperitoneal
assay.conditions: in vivo, read-out: beta t1/2 (converted)
assay.metric: half-life (h)

1. CC(C)(C)CNC(=O)Cc1ccc(Nc2nc(-c3ccccc3)ncc2C(N)=O)cc1 3.2

###

experiment: Cmax in mouse at 10 mg/kg, ip
Type: ADME, organism-based
Parameters: dose 10 mg/kg, route intraperitoneal
assay.conditions: in vivo
assay.metric: Cmax (ng/mL)

1) CC(C)(C)CNC(=O)Cc1ccc(Nc2nc(-c3ccccc3)ncc2C(N)=O)cc1 1490
